Reference source for all entries: PubChem BioAssay (Tox21)

molecular target: Nuclear receptor subfamily 1 group I member 3 (Homo sapiens) (UniProt Q14994); assay: qHTS assay to identify small molecule antagonists of the constitutive androstane receptor (CAR) signaling pathway (AID 1224838); settings: HepG2-CYP2B6-hCAR luciferase, CITCO-stimulated, 24 h; series mostly up to 92.4 µM;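 also: HepG2 cells stably expressing hCAR with CYP2B6 luciferase reporter stimulated by CITCO; nearly all actives have a fitted effect of over 40% in size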
Sequence (Q14994 whole entry, looked up): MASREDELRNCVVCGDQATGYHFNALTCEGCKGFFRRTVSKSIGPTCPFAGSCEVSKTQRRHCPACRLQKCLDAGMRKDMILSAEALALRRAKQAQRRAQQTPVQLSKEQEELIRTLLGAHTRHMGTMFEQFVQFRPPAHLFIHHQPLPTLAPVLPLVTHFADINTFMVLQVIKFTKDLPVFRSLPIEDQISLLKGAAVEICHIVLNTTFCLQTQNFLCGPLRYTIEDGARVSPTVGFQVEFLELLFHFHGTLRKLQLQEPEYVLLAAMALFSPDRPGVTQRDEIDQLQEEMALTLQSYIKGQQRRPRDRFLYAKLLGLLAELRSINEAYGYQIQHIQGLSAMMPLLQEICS
Records with an inconclusive call do not appear. Active and inactive are the calls of the source. Calls follow the shape of the dose curve; as a rule, active = well fitted inhibition curve with a large enough effect in the repeat runs; inconclusive = weak or mixed curves, or effect the other way; inactive = no such curve, though single readings can be large or run the other way.
Entry note: the call must match one of Yes (active), No (inactive)

Previously resolved entries follow.
CCOC(=O)C(C)C(C)=O (centres undefined)	No
CCCCC(CC)COC(=O)CC(C(=O)OCC(CC)CCCC)S(=O)(=O)O (centres undefined)	No
CC(C)(c1ccccc1)c1ccc(Nc2ccc(C(C)(C)c3ccccc3)cc2)cc1	No

For the next question, use this compound.
Hi, do you know how "O=C(O)c1cc(Cl)cc(Cl)c1" came out in this test?
No

* * *

target: Nuclear receptor ROR-gamma (Homo sapiens) (UniProt P51449); assay: qHTS assay to identify small molecule antagonists of the retinoid-related orphan receptor gamma (ROR-gamma) signaling pathway (AID 1159521;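 also: CHO cells with doxycycline inducible ROR-gamma driving an RORE luciferase reporter; top concentration of the series differs between compounds; nearly all actives have a fitted effect of over 50% in size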); conditions: Tet-on RORgamma CHO cells, RORE-luciferase, 16 h; series mostly up to 92.4 µM
Inconclusive results are not listed. Active and inactive are the calls of the source. Calls come from the whole dose curve; as a rule, active = well fitted inhibition curve with a large enough effect in the repeat runs; inconclusive = weak or mixed curves, or effect the other way; inactive = no such curve, though single readings can be large or run the other way.
Entry note: the call must match one of True for active, False for inactive

Previously resolved entries follow.
CC(C)(O)CCC(C)(C)O	False
CCCCC(CC)COC(=O)CC(C(=O)OCC(CC)CCCC)S(=O)(=O)O (stereo not given)	False
CC(C)CCOCc1ccccc1	False

Hi, do you know how CC(C(O)c1ccc(O)cc1)N1CCC(Cc2ccccc2)CC1 (stereo not given) came out in this test?
False

Hi, do you know how COc1ccc(CCN(C)CCCC(C#N)(c2ccc(OC)c(OC)c2)C(C)C)cc1OC (stereo not given) came out in this test?
False

Hi, do you know how "NNCCc1ccccc1" came out in this test?
False

Hi, do you know how "O=C1Nc2ccccc2C1(c1ccc(O)cc1)c1ccc(O)cc1" came out in this test?
False

* * *

experiment: A CellTox Green Cytotoxicity Assay to monitor cytotoxicity in HepG2 cells - 0 hour (AID 1224882); conditions: CellTox Green fluorescence; series mostly up to 76.8 µM; also: nearly all actives have a fitted effect of over 35% in size
The source made the active and inactive calls. The call rests on the fitted dose curve; in most records, active means well fitted activation curve with a large enough effect in the repeat runs; inconclusive means weak or mixed curves; inactive means flat fitted curve, though single readings scatter.
attributeMeasured: cytotoxicity

Solved entries (count: 5):
c1cnc2cc3c(cc2n1)C1CNCC3C1	inactive
CCCCN(CCO)CCCC	inactive
COC(=O)[C@H]1[C@H]2C[C@@H]3c4[nH]c5cc(OC)ccc5c4CCN3C[C@H]2C[C@@H](OC(=O)c2cc(OC)c(OC)c(OC)c2)[C@@H]1OC	inactive
Cc1ccc(-c2cc(C(F)(F)F)nn2-c2ccc(S(N)(=O)=O)cc2)cc1	inactive
CN1C(=O)c2ccc([N+](=O)[O-])cc2C1=O	inactive

Each compound below has a reported value. Please supply its cytotoxicity.
1. CC(=O)CC(C)=O
2. CCCCCCCCCCCCc1ccccc1O
3. C#CC(C)(CC)OC(=O)c1ccccc1C(=O)O (stereo not given)
4. CCCCCC(=O)O[C@]1(C(C)=O)CC[C@H]2[C@@H]3CCC4=CC(=O)CC[C@]4(C)[C@H]3CC[C@@]21C
5. O
6. CC(=O)Nc1ccc(C(=O)CCl)cc1
7. Nc1ccc2cc3ccccc3cc2c1
8. O=C(Nc1ccccc1SSc1ccccc1NC(=O)c1ccccc1)c1ccccc1

1. inactive
2. inactive
3. inactive
4. inactive
5. inactive
6. inactive
7. inactive
8. inactive

Each compound below has a reported value. Please supply its cytotoxicity.
1. CO[Si](OC)(OC)c1ccccc1
2. CC[C@]1(O)C[C@@H]2CN(CCc3c([nH]c4ccccc34)[C@@](C(=O)OC)(c3cc4c(cc3OC)N(C)[C@H]3[C@@](O)(C(=O)OC)[C@H](OC(C)=O)[C@]5(CC)C=CCN6CC[C@]43[C@@H]65)C2)C1
3. CC(C)(C)NCC(O)c1cc(O)cc(O)c1 (stereo not given)
4. COc1nc(C)nc(Cl)c1NC1=NCCN1
5. CCCCCCC(O)CCCCCCCCCCC(=O)O (stereo not given)
6. CN(C)c1ccc2nc3ccc(=[N+](C)C)cc-3sc2c1

["inactive", "inactive", "inactive", "inactive", "inactive", "inactive"]

* * *

experiment: A CellTox Green Cytotoxicity Assay to monitor cytotoxicity in HepG2 cells - 40 hour (AID 1224879); conditions: CellTox Green fluorescence; series mostly up to 76.8 µM; also: nearly all actives have a fitted effect of over 40% in size; also: potency is read from the fitted curve at half-maximal effect
Results filed as inconclusive are left out. Active and inactive are the calls of the source. Calls follow the shape of the dose curve; as a rule, active = well fitted activation curve with a large enough effect in the repeat runs; inconclusive = weak or mixed curves; inactive = flat fitted curve, though single readings scatter.
attributeMeasured: Potency

CC(=O)CC(=O)Nc1ccc2[nH]c(=O)[nH]c2c1	inactive
CCOc1ccc2c(c1)C(C)=CC(C)(C)N2	inactive
O=C(Oc1ccccc1)c1ccccc1O	inactive
CCCNC(C)C(=O)Nc1ccccc1C (centres undefined)	inactive
CC(=O)CC(C)=O	inactive

Each compound below has a reported value. Please supply its Potency.
1. CC(C)CCOC(=O)c1ccc(N(C)C)cc1
2. COC(=O)/C=C/c1ccccc1
3. O=C(O)c1cn(-c2ccc(F)cc2)c2cc(N3CCNCC3)c(F)cc2c1=O
4. O=C(O[C@@H]1Cc2c(O)cc(O)cc2O[C@@H]1c1cc(O)c(O)c(O)c1)c1cc(O)c(O)c(O)c1

1. 1900 nM (active)
2. inactive
3. inactive
4. inactive

Each compound below has a reported value. Please supply its Potency.
1. CCCCC/C=C/CC1CC(=O)OC1=O (centres undefined)
2. CC1=C(C=O)C(C)(C)CC=C1
3. Cc1cccc(O)c1C

1. inactive
2. inactive
3. inactive

Each compound below has a reported value. Please supply its Potency.
1. NNCCc1ccccc1
2. CCCN[C@H]1CCc2nc(N)sc2C1

1. inactive
2. inactive

* * *

assay: qHTS RealTime-Glo MT Cell Viability Assay in HEK293 cells - 32 hour (AID 1224868); details: RealTime-Glo luminescence; series mostly up to 76.8 µM; also: nearly all actives have a fitted effect of over 50% in size
Results filed as inconclusive are left out. Activity calls are given as the source filed them. The call rests on the fitted dose curve; in most records, active means well fitted cell-killing curve with a large enough effect in the repeat runs; inconclusive means weak or mixed curves, or effect the other way; inactive means flat fitted curve, though single readings scatter.
Entry note: the call must match one of active, inactive

C=C(C)C1CC=C(C)C(OC(C)=O)C1 (centres undefined)	inactive
O=S(=O)(O)c1ccc2nc(-c3ccccc3)[nH]c2c1	inactive
CC(C)(C)c1ccccc1	inactive

Hi, do you know how "COC(=O)/C=C/c1ccccc1" came out in this test?
inactive

Hi, do you know how "CCCCOCCOC(=O)c1ccccc1C(=O)OCCOCCCC" came out in this test?
inactive

Hi, do you know how C#CC(C)(CC)OC(=O)c1ccccc1C(=O)O (centres undefined) came out in this test?
inactive

Hi, do you know how "CC1=CC(=O)c2ccccc2C1=O" came out in this test?
active

* * *

test: A CellTox Green Cytotoxicity Assay to monitor cytotoxicity in HEK293 cells - 16 hour (AID 1224888); conditions: CellTox Green fluorescence; series mostly up to 76.8 µM; also: nearly all actives have a fitted effect of over 35% in size
Records with an inconclusive call do not appear. Activity calls are given as the source filed them. Calls follow the shape of the dose curve; as a rule, active = well fitted activation curve with a large enough effect in the repeat runs; inconclusive = weak or mixed curves; inactive = flat fitted curve, though single readings scatter.
Entry note: the call must match one of true = active, false = inactive

Previously resolved entries follow.
BrC1CCC(Br)C(Br)CCC(Br)C(Br)CCC1Br (centres undefined)	false
CCC[C@H](N[C@@H](C)C(=O)N1[C@H](C(=O)O)C[C@@H]2CCCC[C@@H]21)C(=O)OCC	false
O=C(Nc1ccccc1SSc1ccccc1NC(=O)c1ccccc1)c1ccccc1	false
O=S(=O)(O)c1ccc2nc(-c3ccccc3)[nH]c2c1	false
CCN(CC)CCOc1ccc(/C(=C(\Cl)c2ccccc2)c2ccccc2)cc1	true
CC[C@]1(O)C[C@@H]2CN(CCc3c([nH]c4ccccc34)[C@@](C(=O)OC)(c3cc4c(cc3OC)N(C)[C@H]3[C@@](O)(C(=O)OC)[C@H](OC(C)=O)[C@]5(CC)C=CCN6CC[C@]43[C@@H]65)C2)C1	false
O=Nc1ccc(Nc2ccccc2)cc1	false
CC(C)CCOC(=O)c1ccc(N(C)C)cc1	false

Hi, do you know how "CCCCCC(=O)O[C@]1(C(C)=O)CC[C@H]2[C@@H]3CCC4=CC(=O)CC[C@]4(C)[C@H]3CC[C@@]21C" came out in this test?
false

Hi, do you know how "COc1ccc(Cc2cnc(N)nc2N)cc1OC" came out in this test?
false

Hi, do you know how "O=C(O)Cn1cnnn1" came out in this test?
false

Hi, do you know how "Nc1ccc2cc3ccccc3cc2c1" came out in this test?
false

Hi, do you know how "Cc1cc(Cc2cc(C)cc(C(C)(C)C)c2O)c(O)c(C(C)(C)C)c1" came out in this test?
true

Hi, do you know how "NC(=Nc1ccccc1)Nc1ccccc1" came out in this test?
false

Hi, do you know how "OCC(CO)N[C@H]1C[C@](O)(CO)[C@@H](O)[C@H](O)[C@H]1O" came out in this test?
false

Hi, do you know how "CC(C)(O)CCC(C)(C)O" came out in this test?
false

* * *

assay: qHTS assay to identify small molecule antagonists of the estrogen related receptor (ERR) signaling pathway from Tox21 library (AID 1224848); conditions: ERR reporter cell line, luciferase antagonist mode, 18 h; series mostly up to 92.4 µM; also: nearly all actives have a fitted effect of over 50% in size
Results filed as inconclusive are left out. Activity calls are given as the source filed them. Calls come from the whole dose curve; as a rule, active = well fitted inhibition curve with a large enough effect in the repeat runs; inconclusive = weak or mixed curves; inactive = no such curve, though single readings can be large or run the other way.
Entry note: the call must match one of active, inactive

[Cl][In]([Cl])[Cl]	active
C=CC(=O)OCCCCCCOC(=O)C=C	inactive
O=S(=O)(O)c1ccc2nc(-c3ccccc3)[nH]c2c1	inactive
C=CS(=O)(=O)O	inactive
CCC(CO)(CO)COCC(CC)(CO)CO	inactive

Hi, do you know how "CCn1c2ccccc2c2cc(N)ccc21" came out in this test?
active

Hi, do you know how "COc1ccc(COC(C)=O)cc1" came out in this test?
inactive

Hi, do you know how CCN(CC)C(=O)Nc1ccc(OCC(O)CNC(C)(C)C)c(C(C)=O)c1 (stereo not drawn) came out in this test?
inactive

Hi, do you know how CCn1cc(C(=O)O)c(=O)c2cc(F)c(N3CCNC(C)C3)c(F)c21 (stereo not drawn) came out in this test?
inactive
